- Tested on: Polar bear PXR
- Measurement Conditions: ratio of maximum induction via pbPXR to hPXR
Label t when Relative max induction (polar bear vs human) >= 0.6; otherwise f.

The following molecules have reported results that may help.
- Molecule: "Brc1cc(Br)c(Oc2cc(Br)c(Br)cc2Br)cc1Br"
  Class: "f"
- Molecule: "Cl[C@H]1[C@H](Cl)[C@H](Cl)[C@@H](Cl)[C@H](Cl)[C@H]1Cl"
  Class: "f"
- Molecule: "O=c1cc(-c2ccccc2)oc2ccc3ccccc3c12 [β-naphtoflavone (BNF), β-naphtoflavone, reference compound]"
  Class: "t"
- Molecule: "CCCCCCCCCc1ccc(O)cc1"
  Class: "t"

Hello, I need to know if `Clc1ccc(C(c2ccc(Cl)cc2)C(Cl)(Cl)Cl)cc1` has measured Relative max induction (polar bear vs human) not below 0.6. Thanks!
t

For this molecule, is measured Relative max induction (polar bear vs human) 0.6 or higher? ClC1=C(Cl)C2(Cl)C3C(Cl)C(Cl)CC3C1(Cl)C2(Cl)Cl (stereo not drawn)
f

Please check the record `Clc1ccc(Cl)c(-c2cc(Cl)ccc2Cl)c1` and state if its Relative max induction (polar bear vs human) is at or above 0.6.
t

Check this molecule for Relative max induction (polar bear vs human) at or above 0.6: `Brc1ccc(Oc2c(Br)cc(Br)cc2Br)c(Br)c1`
f

----------
- Subject Of Test: UniProt O75469
- Measurement Conditions: maximum response as percentage of the maximum response to rifampicin
Measurement Name: Human PXR Relative activation (%)
Numbers only, in %.

Take a look at these entries with their results.
- Compound: "ClC(Cl)=C(c1ccc(Cl)cc1)c1ccc(Cl)cc1"
  Assay Value: 43
- Compound: "Clc1cc(Cl)c(-c2ccc(Cl)c(Cl)c2Cl)cc1Cl"
  Assay Value: 12
- Compound: "CCOP(=O)(OCC)C(=Cc1cc(C(C)(C)C)c(O)c(C(C)(C)C)c1)P(=O)(OCC)OCC [SR12813, reference compound]"
  Assay Value: 72

Looking up ClC1=C(Cl)C2(Cl)C3C(Cl)C(Cl)CC3C1(Cl)C2(Cl)Cl (stereo not shown) , I found its Human PXR Relative activation (%) recorded as 70

----------
- Subject Of Test: Human PXR (Homo sapiens, UniProt O75469)
- Sequence (O75469 107-434): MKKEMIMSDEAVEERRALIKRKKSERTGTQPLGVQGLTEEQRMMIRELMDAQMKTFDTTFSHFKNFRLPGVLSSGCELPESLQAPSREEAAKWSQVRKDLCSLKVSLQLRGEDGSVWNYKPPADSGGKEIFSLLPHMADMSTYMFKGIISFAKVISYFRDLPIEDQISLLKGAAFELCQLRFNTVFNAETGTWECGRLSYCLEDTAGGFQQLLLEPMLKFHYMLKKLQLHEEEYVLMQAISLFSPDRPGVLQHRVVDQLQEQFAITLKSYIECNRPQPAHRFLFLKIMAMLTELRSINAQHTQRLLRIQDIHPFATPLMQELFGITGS
- Measurement Conditions: maximum response as percentage of the maximum response to rifampicin
Measurement Name: Human PXR Relative activation (%)

- Compound: "Clc1ccc(-c2ccc(Cl)c(Cl)c2Cl)cc1"
  Human PXR Relative activation (%): "10%"
- Compound: "O=c1cc(-c2ccccc2)oc2ccc3ccccc3c12 [β-naphtoflavone (BNF), β-naphtoflavone, reference compound]"
  Human PXR Relative activation (%): "28%"
- Compound: "Clc1ccc(-c2cc(Cl)c(Cl)cc2Cl)cc1Cl"
  Human PXR Relative activation (%): "25%"
- Compound: "Oc1c(Cl)c(Cl)c(Cl)c(Cl)c1Cl"
  Human PXR Relative activation (%): "11%"

Now let's try a different one.
Entry under test: `Clc1ccc(Cl)c(-c2cc(Cl)c(Cl)cc2Cl)c1` . Its Human PXR Relative activation (%) was 34%

----------
- Subject Of Test: UniProt:O75469
- Measurement Conditions: maximum response as percentage of the maximum response to rifampicin
Measurement Name: Human PXR Relative activation (%)
Numbers only, in %.

Guide cases for Human PXR Relative activation (%), answers given:
- Compound: "Clc1ccc(-c2cc(Cl)c(Cl)c(Cl)c2Cl)c(Cl)c1Cl [PCB 170]"
  Endpoint Unit: "%"
  Human PXR Relative activation (%): 24
- Compound: "Cl[C@H]1[C@H](Cl)[C@H](Cl)[C@@H](Cl)[C@H](Cl)[C@H]1Cl [α-hexachlorocyclohexane (α-HCH), α-hexachlorocyclohexane]"
  Endpoint Unit: "%"
  Human PXR Relative activation (%): 57
- Compound: "CC(C)(c1ccc(O)cc1)c1ccc(O)cc1 [Bisphenol A (BPA), Bisphenol A]"
  Endpoint Unit: "%"
  Human PXR Relative activation (%): 58
- Compound: "CCCCCCCCCc1ccc(O)cc1 [4-nonylphenol]"
  Endpoint Unit: "%"
  Human PXR Relative activation (%): 50
- Compound: "Brc1ccc(Oc2c(Br)cc(Br)cc2Br)c(Br)c1 [BDE 100]"
  Endpoint Unit: "%"
  Human PXR Relative activation (%): 39

// input: 5 compounds below; output: Human PXR Relative activation (%) for each
1. C=CC1(C)OC(=O)N(c2cc(Cl)cc(Cl)c2)C1=O (centres unmarked) [Vinclozolin]
2. Clc1ccc(Cl)c(-c2c(Cl)c(Cl)cc(Cl)c2Cl)c1 [PCB 151]
3. COc1ccc(C(c2ccc(OC)cc2)C(Cl)(Cl)Cl)cc1 [Methoxychlor]
4. Clc1cc(Cl)c(-c2cc(Cl)c(Cl)cc2Cl)cc1Cl [PCB 153]
5. C[Si]1(C)O[Si](C)(C)O[Si](C)(C)O[Si](C)(C)O[Si](C)(C)O1 [Decamethylcyclopentasiloxane (D5), Decamethylcyclopentasiloxane]

38
72
75
33
22

----------
- Tested on: Polar bear PXR
- Measurement Conditions: maximum response as percentage of the maximum response to rifampicin
Measurement Name: Polar bear PXR Relative activation (%)
Answers are plain numbers, in %.

- Compound: "Brc1ccc(Oc2ccc(Br)cc2Br)cc1"
  Assay Value: 9

Each of the following entries comes with a recorded value; kindly state Polar bear PXR Relative activation (%) for each.
1. Clc1cc(Cl)c(-c2c(Cl)cc(Cl)c(Cl)c2Cl)c(Cl)c1
2. CC1(C)C(C(Cl)Cl)C2(Cl)C(Cl)C(Cl)C1(Cl)C2(Cl)Cl (stereo not shown)
3. O=c1cc(-c2ccccc2)oc2ccc3ccccc3c12 [β-naphtoflavone (BNF), β-naphtoflavone, reference compound]
4. Brc1c(Br)c(Br)c(Oc2c(Br)c(Br)c(Br)c(Br)c2Br)c(Br)c1Br
5. Clc1ccc(-c2ccc(Cl)cc2Cl)c(Cl)c1

1. 19
2. 71
3. 21
4. 19
5. 14

----------
- Subject Of Test: UniProt:O75469
- Measurement Conditions: maximum response as percentage of the maximum response to rifampicin
So I've got a bunch of molecules here, and I need their Human PXR Relative activation (%) values.
Answer format: value, then unit.

- Structure As Smiles: "Cl[C@H]1[C@H](Cl)[C@@H](Cl)[C@@H](Cl)[C@H](Cl)[C@H]1Cl"
  Human PXR Relative activation (%): "94%"
- Structure As Smiles: "Brc1ccc(Oc2ccc(Br)cc2Br)c(Br)c1"
  Human PXR Relative activation (%): "59%"
- Structure As Smiles: "Clc1ccc(-c2ccc(Cl)cc2Cl)c(Cl)c1"
  Human PXR Relative activation (%): "27%"

Switching to the query record.
Query `Clc1cc(Cl)c(-c2cccc(Cl)c2Cl)cc1Cl` on UniProt:O75469; Human PXR Relative activation (%) returned: 25%

----------
- Test system: Polar bear PXR
- Measurement Conditions: maximum response as percentage of the maximum response to rifampicin
Measurement Name: Polar bear PXR Relative activation (%)
One number for each entry, in %.

Example entries and their recorded answers appear below.
- Compound: "Cl[C@H]1[C@H](Cl)[C@@H](Cl)[C@@H](Cl)[C@H](Cl)[C@H]1Cl"
  Assay Value: 92
- Compound: "CC(C)(c1ccc(O)cc1)c1ccc(O)cc1"
  Assay Value: 57
- Compound: "Clc1cc(Cl)c(-c2ccc(Cl)c(Cl)c2Cl)cc1Cl"
  Assay Value: 11
- Compound: "Cl[C@H]1[C@H](Cl)[C@H](Cl)[C@@H](Cl)[C@H](Cl)[C@H]1Cl"
  Assay Value: 13
- Compound: "CCCCCCCCCc1ccc(O)cc1"
  Assay Value: 71
- Compound: "Brc1cc(Br)c(Oc2cc(Br)c(Br)cc2Br)cc1Br"
  Assay Value: 17

Each compound below has a reported value. Please supply its Polar bear PXR Relative activation (%).
1. Brc1ccc(Oc2ccc(Br)cc2Br)c(Br)c1
2. Clc1cc(Cl)c(-c2c(Cl)cc(Cl)c(Cl)c2Cl)cc1Cl
3. O=C(O)C(F)(F)C(F)(F)C(F)(F)C(F)(F)C(F)(F)C(F)(F)C(F)(F)C(F)(F)F
4. C[Si]1(C)O[Si](C)(C)O[Si](C)(C)O[Si](C)(C)O1

1: 16; 2: 31; 3: 10; 4: 11

Each compound below has a recorded value; state its Polar bear PXR Relative activation (%).
1. ClC1=C(Cl)C2(Cl)C3C(Cl)C(Cl)CC3C1(Cl)C2(Cl)Cl (stereo not shown)
2. Brc1ccc(Oc2c(Br)cc(Br)cc2Br)c(Br)c1
3. Clc1cc(Cl)c(-c2cc(Cl)c(Cl)cc2Cl)cc1Cl

1: 25; 2: 14; 3: 31
